measurement notes: Half life in monkey liver microsomes
Assay type: ADME, Macaca mulatta, Microsome
assay setup: rhesus monkey
measurement type: half-life (h)
Write the value in h as a bare number.

So for `COc1ccc(-c2ncn(-c3cc(OC)c(OC)c(OC)c3)n2)cc1F` , the logged half-life turned out to be 1

---

measurement notes: Half life in human liver microsomes
Type: ADME, Microsome
measurement type: half-life

So for `COc1ccc(-c2ncn(-c3cc(OC)c(OC)c(OC)c3)n2)cc1F` , the logged half-life turned out to be > 1 h

---

measurement notes: Intrinsic clearance in rat liver microsomes measured per mg protein
Type: ADME, Microsome
assay setup: read-out: CLH
measurement type: microsomal CLint

So for `COc1ccc(-c2ncn(-c3cc(OC)c(OC)c(OC)c3)n2)cc1F` , the logged microsomal CLint turned out to be > 86.1 µL/min/mg

---

measurement notes: Intrinsic clearance in monkey liver microsomes measured per mg protein
Type: ADME, Macaca mulatta, Microsome
assay setup: rhesus monkey
measurement type: microsomal CLint (µL/min/mg)
Write the value in µL/min/mg as a bare number.

So for `COc1ccc(-c2ncn(-c3cc(OC)c(OC)c(OC)c3)n2)cc1F` , the logged microsomal CLint turned out to be 23

---

measurement notes: Intrinsic clearance in human liver microsomes measured per mg protein
Type: ADME, Microsome
measurement type: microsomal CLint

So for `COc1ccc(-c2ncn(-c3cc(OC)c(OC)c(OC)c3)n2)cc1F` , the logged microsomal CLint turned out to be 13 µL/min/mg

---

measurement notes: Intrinsic clearance in mouse liver microsomes measured per mg protein
Assay type: ADME, Microsome
measurement type: microsomal CLint (µL/min/mg)
Write the value in µL/min/mg as a bare number.

So for `COc1ccc(-c2ncn(-c3cc(OC)c(OC)c(OC)c3)n2)cc1F` , the logged microsomal CLint turned out to be 41

---

pIC50 listing for selected compounds.
Tested on: MCF7
measurement notes: Antiproliferative activity against human MCF7 cells assessed as inhibition of cell growth incubated for 48 hrs by MTT assay
Type: functional, cell-based
assay setup: MCF7, 48 h
In textbook form, pIC50 equals minus log to base ten of the concentration in mol/L.

COc1cc(-n2cnc(-c3cccc(N)c3)n2)cc(OC)c1OC : 5.24
COc1cc(-n2cnc(-c3ccc4nc[nH]c4c3)n2)cc(OC)c1OC : 5.28

So for `COc1cc(-n2cnc(-c3cccc(C(F)(F)F)c3)n2)cc(OC)c1OC` , the logged pIC50 turned out to be 4.96

So for `COc1ccc(-c2ncn(-c3cc(OC)c(OC)c(OC)c3)n2)cc1F` , the logged pIC50 turned out to be 5.32

---

measurement notes: Half life in rat liver microsomes
Type: ADME, Microsome
measurement type: half-life

So for `COc1ccc(-c2ncn(-c3cc(OC)c(OC)c(OC)c3)n2)cc1F` , the logged half-life turned out to be < 30 min

---

measurement notes: Cytotoxicity against human MCF-10A cells assessed as inhibition of cell growth incubated for 24 hrs by MTT assay
Type: toxicity, cell-based
measurement type: IC50 at 24 h

COc1ccc(-c2ncn(-c3cc(OC)c(OC)c(OC)c3)n2)cc1F : > 100 µM

Please find the next compound below.
So for `COc1cc(-n2cnc(-c3ccc4nc[nH]c4c3)n2)cc(OC)c1OC` , the logged IC50 at 24 h turned out to be > 100 µM

---

measurement notes: Half life in dog liver microsomes
Format: ADME, Canis lupus familiaris, Microsome
measurement type: half-life

So for `COc1ccc(-c2ncn(-c3cc(OC)c(OC)c(OC)c3)n2)cc1F` , the logged half-life turned out to be < 30 min
